Below, each of the molecules is paired with its reported TGI value.
- System: KM12 colon
- PROTOCOL_NOTES: NCI tumour cell line growth inhibition, 48 h
PROPERTY_LABEL: TGI

1) CC(=O)Oc1ccc2ccc(=O)oc2c1OC(C)=O = > 100 µM
2) CC1(C)CC(=O)C(C(c2cccc(O)c2O)C2C(=O)CC(C)(C)CC2=O)C(=O)C1 = > 100 µM
3) Nc1ccc2cc(S(=O)(=O)O)cc(O)c2c1N=Nc1ccc(NC(=O)Nc2ccc(N=Nc3c(N)ccc4cc(S(=O)(=O)O)cc(O)c34)c(S(=O)(=O)O)c2)cc1S(=O)(=O)O = > 100 µM
4) CCN(CC)CCCC(C)NC(=O)c1cc(-c2nccn2C)nc2ccc(C)cc12 (stereo not drawn) = > 100 µM
5) O=C(Cn1c(C(=O)/C=C/c2ccco2)nc2ccccc21)c1ccc(Cl)cc1 = 47.1 µM
6) c1ccc(-c2nc3sccn3n2)cc1 = > 100 µM
7) C=C1C(=O)OC2C[C@H](C)C3CC(=O)C(C)=C3CC12 (stereo partly drawn) = 33.3 µM
8) CCOCCc1c(O)nc(SC)[nH]c1=O = > 100 µM
9) COC(=O)C1=C(C(=O)OC)SC(=C2c3ccsc3-c3sccc32)S1 = > 100 µM
10) COC(=O)CCC(=O)CC(=O)C(=O)Nc1ccc(F)cc1 = > 100 µM
11) C/C(O)=C(/C=N\C(=S)Nc1ccc(Cl)c(Cl)c1)C(=O)Nc1ccccc1C = > 100 µM
12) Cc1c(C)c(S(=O)(=O)N(CCCCCN)OCCCN)c(C)c2c1OC(C)(C)CC2 = 8.93 µM
13) O=C1CSC(=S)N1c1ccc(F)cc1F = > 100 µM
14) Cn1c(=O)nc2n(-c3ccc(F)cc3)c3ccccc3nc-2c1=O = > 100 µM
15) CC1=NN(c2nc(N)nc(C(C)Sc3cc(Cl)c(C)cc3S(N)(=O)=O)n2)C(C)(C)C1 (stereo not drawn) = > 10 µM
16) Nc1ccccc1/C=N\Nc1ccccc1 = > 100 µM
17) O=C(O)Cn1nnc2c(=O)[nH][nH]c(=O)c21 = > 100 µM
18) C[C@@H](C(=O)O)c1ccc(-c2ccccc2)c(F)c1 = > 100 µM
19) Cc1cc2cc(Cl)ccc2nc1C(=O)c1ccccc1 = > 100 µM
20) COC(=O)c1cc(C)n2c1CS[C@@H]2c1ccccc1 = > 100 µM
21) CCOc1cc(C=O)c2c(ccc3ccc(OC)c(OC)c32)c1OC = > 100 µM
22) Oc1ccc2ccccc2c1-c1c(Nc2ccccc2)ccc2ccccc12 = 37.3 µM
23) O=c1c2cc(Br)ccc2[nH]c(=S)n1-c1ccc(Br)cc1 = > 100 µM

---

Reported TGI is given for each of the following molecules.
- System: HCT-116 colon
- PROTOCOL_NOTES: NCI tumour cell line growth inhibition, 48 h
PROPERTY_LABEL: TGI

1. Nc1ccccc1/C=N\Nc1ccccc1 = > 100 µM
2. NC(=O)Cc1ncn(-c2ccccc2)n1 = > 100 µM
3. COC(=O)c1cc(C)n2c1CS[C@@H]2c1ccccc1 = > 100 µM
4. COc1cc(CNc2nc3ccccc3nc2-c2cccs2)cc(OC)c1OC = > 100 µM
5. COc1nc(/C=N/NC(N)=S)nc(OC)n1 = > 100 µM
6. CCOC(=O)c1ccc2c(c1)[n+](=O)c(C(=O)c1ccc3ccccc3c1)c(C(F)(F)F)n2[O-] = 1.46 µM

---

- System: NCI-H522 lung
- PROTOCOL_NOTES: NCI tumour cell line growth inhibition, 48 h
PROPERTY_LABEL: TGI

1. COc1ccc(CN2C(=O)C(Cc3cc(OC)c(OC)c(C)c3OC)N(C(=O)OC(C)C)C(=O)/C2=C/c2cc(OC)c(OC)c(C)c2OC)cc1 (stereo unspecified) = > 100 µM
2. O=C(N/N=C/c1coc2ccc(Cl)cc2c1=O)c1ccncc1 = > 100 µM
3. O=C(c1ccccc1)c1ccc(Cl)c([N+](=O)[O-])c1 = 6.18 µM
4. CC1=NN(C(=O)CC(=O)Nc2ccccc2C)C(=O)C1N=Nc1ccc(S(=O)(=O)c2ccc(N=NC3C(=O)N(C(=O)CC(=O)Nc4ccccc4C)N=C3C)cc2)cc1 (stereo unspecified) = > 100 µM
5. COc1cc(C2c3cc4c(cc3[C@H](NC(=O)c3cccs3)C3COC(=O)[C@H]23)OCO4)cc(OC)c1OC (stereo partly specified) = 0.0213 µM
6. C=C1C(=O)O[C@H]2[C@H]1CC/C(C=Nc1ccc(C(F)(F)F)cc1N)=C\CC[C@@]1(C)O[C@@H]21 = 7.8 µM
7. COc1cc(C2C(Cl)C(=O)N2NC(=O)c2ccc(NC(C)=O)cc2)cc(Br)c1O (stereo unspecified) = > 100 µM
8. C=C1C(=O)OC2C[C@H](C)C3CC(=O)C(C)=C3CC12 (stereo partly specified) = 3.66 µM
9. Cc1cc2cc(Cl)ccc2nc1C(=O)c1ccccc1 = > 100 µM
10. CC1CC(=O)N2CCCNC2=C1C#N (stereo unspecified) = > 100 µM
11. O=C1C(c2ccc([N+](=O)[O-])cc2)=[N+]([O-])c2ccccc21 = 20.3 µM
12. CC(C)(C)c1ccc(-c2nc3ccccc3c(=O)o2)cc1 = 69.6 µM
13. Cn1c(N(CCO)CCO)cnc1[N+](=O)[O-] = > 100 µM
14. CSC(=NC1CC(n2cc(C)c(=O)[nH]c2=O)OC1CO)NC#N (stereo unspecified) = > 100 µM
15. CC(N)C(=O)c1ccc(O)cc1 (stereo unspecified) = > 100 µM
16. O=C(O)CNC(=O)c1ccccc1O = > 100 µM
17. CCOC(=O)c1c[nH]c2c(OCc3ccccc3)c3ccccc3c(O)c2c1=O = > 83.9 µM
18. CCc1ccc(CCC(=O)O)nc1 = > 100 µM
19. O=C(CCc1nnc2s/c(=C\c3ccc4c(c3)OCO4)c(=O)n12)Nc1cc(Cl)ccc1Cl = > 100 µM
20. CCCCCCc1cc2cc(C(=O)Nc3ccccc3F)c(=N)oc2cc1O = 16.8 µM
21. COc1ccc(-c2nc(N)c(C#N)c3c2CCSc2ccc(C)cc2-3)cc1OC = > 100 µM

---

- Test system: SK-OV-3 ovarian
- PROTOCOL_NOTES: NCI tumour cell line growth inhibition, 48 h
Measured TGI by item
PROPERTY_LABEL: TGI

1) O=C(O)CN1CCNCCN(CC(=O)O)CCNCC1 = > 100 µM
2) C[N+](C)(C)CCC(=O)N1C/C(=C\c2ccccc2)C(=O)/C(=C/c2ccccc2)C1 = 46.8 µM
3) CN(C)CCCNC(=O)c1cc(NC(=O)CCNC(=O)c2ccc3c(c2)C(=O)c2ccccc2C3=O)cn1C = > 100 µM
4) CC(=O)Oc1ccc2ccc(=O)oc2c1OC(C)=O = > 100 µM
5) COc1ccc(/C=C2\N=C(c3ccccc3)N(c3cc(C(F)(F)F)ccc3Cl)C2=O)cc1OC = > 100 µM
6) O=C(Nc1ncc(Cc2ccccc2)s1)c1ccc2c(c1)OCCO2 = 26.9 µM
7) Oc1ccc2ccccc2c1-c1c(Nc2ccccc2)ccc2ccccc12 = 18.7 µM
8) OC(c1ccsc1)c1cc2ccccc2s1 (configuration not stated) = > 10 µM
9) CSC(=NC1CC(n2cc(C)c(=O)[nH]c2=O)OC1CO)NC#N (configuration not stated) = > 100 µM
10) O=C(N1CCOCC1)C1(c2ccccc2)CCNCC1 = > 100 µM
11) Cc1c(/C=N/NC(=O)c2ccccc2)c(=O)n(-c2ccccc2)n1C = > 100 µM
12) Cn1c(N(CCO)CCO)cnc1[N+](=O)[O-] = > 100 µM
13) O=C(Nc1ccc(Cl)c(Cl)c1)C(=O)Nn1c(=S)[nH]c2ccccc2c1=O = > 100 µM
14) Cn1c(=O)nc2n(-c3ccc(F)cc3)c3ccccc3nc-2c1=O = > 100 µM
15) O=C1C(c2ccc([N+](=O)[O-])cc2)=[N+]([O-])c2ccccc21 = > 100 µM
16) O=C(/C=C/c1ccccn1)c1ccccc1O = 17.9 µM
17) CCOC(=O)NC(=O)c1cn(CCCCCOC(=O)NCCCCCCNC(=O)OCCCCCn2cc(C(=O)NC(=O)OCC)c(=O)[nH]c2=O)c(=O)[nH]c1=O = > 100 µM
18) CCCCOP(=O)(OCCCC)/C(C#N)=C/c1ccc(C)o1 = > 100 µM
19) COc1ccc2c(C)cc(N/N=C/c3sccc3C)nc2c1 = 31.9 µM
20) O=C(O)c1cc(N/C=C2\C(=O)c3ccccc3OC2O)ccc1O (configuration not stated) = 75.1 µg/mL
21) Cc1ccc(Cl)cc1Nc1nc(C(F)(F)F)ccc1C(=O)N/N=C/c1c(Cl)cccc1Cl = 4.76 µM
22) COc1c(OC(C)=O)c(OC(C)=O)cc2c1-c1ccc(OC)c(=O)cc1C(NC(C)=O)CC2 (configuration not stated) = > 48.1 µM
23) COc1ccc2nc3cc(Cl)ccc3c(NCCC(=O)OCC(O)C(O)C(O[C@H](C)C(=O)NC(C)C(=O)NC(CCC(N)=O)C(=O)OCc3ccccc3)C(C=O)NC(C)=O)c2c1 (some centres not stated) = 33 µM
24) COc1cc(C2c3cc4c(cc3[C@H](NC(=O)c3cccs3)C3COC(=O)[C@H]23)OCO4)cc(OC)c1OC (some centres not stated) = > 100 µM
25) CCOC(=O)C1=C(OS(=O)(=O)C(F)(F)F)CCCC1 = > 100 µM
26) CCOC(=O)c1ccc2c(c1)[n+](=O)c(C(=O)c1ccc3ccccc3c1)c(C(F)(F)F)n2[O-] = 2.99 µM
27) O=C(Cn1c(C(=O)/C=C/c2ccco2)nc2ccccc21)c1ccc(Cl)cc1 = > 100 µM
28) O=c1n(CCCN2CCN(c3cccc(Cl)c3)CC2)nc2n1-c1ccc3ccccc3c1SC2 = > 100 µM
29) CCOC(=O)C1=C(N)Oc2c(sc3c(C)cccc23)C1c1ccc(Cl)cc1 (configuration not stated) = 30.1 µM
30) COc1ccc(C(=O)/C(=N/Nc2ccccc2)c2ccc(OC)cc2)cc1 = > 100 µM
31) COc1cc(C2c3cc4c(cc3OC3(O)COC(=O)C23)OCO4)cc(OC)c1OC (configuration not stated) = 79 µM
32) COc1cc(C2C(Cl)C(=O)N2NC(=O)c2ccc(NC(C)=O)cc2)cc(Br)c1O (configuration not stated) = > 100 µM
33) Cc1cccc2nc3n(c12)C(=O)c1ccccc1-3 = > 100 µM
34) CC(C)(C)c1ccc(-c2nc3ccccc3c(=O)o2)cc1 = > 100 µM
35) COc1cc(C(=O)NC2CCN(C)CC2)ccc1Nc1ncc2c(n1)N(C1CCCC1)CC(F)(F)C(=O)N2C = 0.761 µM
36) COc1ccc(OC)c(C2CCCc3c2cnc2nc(N)nc(N)c32)c1 (configuration not stated) = > 100 µM
37) Cc1cc(=O)oc2c(CNC(C)C(=O)O)c(O)ccc12 (configuration not stated) = > 100 µM
